# MEASUREMENT_NOTES: ATG_BRE_CIS: Attagene CIS-FACTORIAL HepG2 Assay for human Bone Morphogenetic Protein (BMP) Response Element (BRE) (AID 2282933)
# RUN_CONDITIONS: HepG2 BMP response element reporter, Attagene transcription factor profiling; actives raise or lower the signal
Active and inactive are the calls of the source. Rule for the calls: active = hit-call score of the fitted dose curve at least 0.9, where 1 is the maximum; inactive = score below 0.9.
Choose one outcome from this list and give only that: active, inactive

Hi, sorry to bother you, what did the test record for CCN(CCO)CCO ?
inactive

Hi, sorry to bother you, what did the test record for NC(=O)c1ccc(N)nc1 ?
inactive

Hi, sorry to bother you, what did the test record for C=CC(=O)[O][Sn]([CH2]CCC)([CH2]CCC)[CH2]CCC ?
active

Hi, sorry to bother you, what did the test record for Cc1cc(SCc2sc(-c3ccc(C(F)(F)F)c(F)c3)nc2C)ccc1OCC(=O)O ?
inactive

Hi, sorry to bother you, what did the test record for O=C(O)C1(c2ccc3c(c2)OC[C@H](Cc2ccc(-c4ccccc4)cc2)[C@H]3O)CCCC1 ?
inactive

Hi, sorry to bother you, what did the test record for O=C1C=CC(=O)c2ccccc21 ?
inactive

Hi, sorry to bother you, what did the test record for CC1CC(=O)O1 (stereo not given) ?
inactive

Hi, sorry to bother you, what did the test record for Oc1cc(Cl)c(Cl)cc1Cl ?
active

Hi, sorry to bother you, what did the test record for CCOC(=O)CCN(SN(C)C(=O)Oc1cccc2c1OC(C)(C)C2)C(C)C ?
active

Hi, sorry to bother you, what did the test record for O=S(=O)(C(Cl)(Cl)Cl)C(Cl)(Cl)Cl ?
active

Hi, sorry to bother you, what did the test record for COc1ccc([N+](=O)[O-])cc1O ?
inactive

Hi, sorry to bother you, what did the test record for Nc1nc(N)nc(Cl)n1 ?
inactive

Hi, sorry to bother you, what did the test record for CC(C)(COCC1CO1)COCC1CO1 (stereo not given) ?
inactive

Hi, sorry to bother you, what did the test record for CCCCCCCCCCCCc1cccc(S(=O)(=O)O)c1 ?
inactive

Hi, sorry to bother you, what did the test record for O=[N+]([O-])c1c2ccccc2cc2ccccc12 ?
inactive

Hi, sorry to bother you, what did the test record for CCOc1ccc(N)cc1 ?
inactive

Hi, sorry to bother you, what did the test record for Cc1ccc2nc3sc(=O)sc3nc2c1 ?
active

Hi, sorry to bother you, what did the test record for O=S(=O)(c1ccc(Cl)cc1)c1cc(Cl)c(Cl)cc1Cl ?
inactive

Hi, sorry to bother you, what did the test record for C=CCN=C=S ?
inactive

Hi, sorry to bother you, what did the test record for CNC(=O)CSP(=O)(OC)OC ?
inactive

Hi, sorry to bother you, what did the test record for CN(C1CCCCC1)C1CCCCC1 ?
inactive

Hi, sorry to bother you, what did the test record for O=C(O)COc1cc(Cl)c(Cl)cc1Cl ?
inactive

Hi, sorry to bother you, what did the test record for C[C@@H]1O[C@@H](O[C@H]2C[C@@H](O)[C@]3(CO)[C@H]4[C@H](O)C[C@]5(C)[C@@H](C6=CC(=O)OC6)CC[C@]5(O)[C@@H]4CC[C@]3(O)C2)[C@H](O)[C@H](O)[C@H]1O ?
inactive

Hi, sorry to bother you, what did the test record for C=CC(Cl)CCl (stereo not given) ?
inactive

Hi, sorry to bother you, what did the test record for Nc1nc(=S)[nH][nH]1 ?
inactive

Hi, sorry to bother you, what did the test record for C=C(C)[C@@H]1CC=C(C=O)CC1 ?
inactive

Hi, sorry to bother you, what did the test record for NC(=O)CCl ?
inactive

Hi, sorry to bother you, what did the test record for O=C(Cl)OCCOCCOC(=O)Cl ?
inactive

Hi, sorry to bother you, what did the test record for c1ccc(-c2cccc(-c3ccccc3)c2)cc1 ?
inactive

Hi, sorry to bother you, what did the test record for CNC(=O)N(C)c1nc2ccccc2s1 ?
inactive
